The origin of these recorded values is ChEMBL document CHEMBL1145673.

Tested on: Hepatocyte
Test: Cytotoxicity in Wistar rat hepatocytes assessed as glutamic-pyruvic transaminase activity at 0.1 mg/ml after 30 hrs
Type: cell-based
measured-attribute: Activity (IU/L)
Quick note: give the figure in IU/L, leave out the unit.

Answered examples (2):
COc1cc(C(=O)O[C@H]2[C@@H]3C=CO[C@@H](O[C@@H]4O[C@H](CO)[C@@H](O)[C@H](O)[C@H]4O)[C@@H]3[C@@]3(CO)O[C@@H]23)ccc1O [PICROSIDE II] : 28
COc1cc(C2Oc3cc([C@H]4Oc5cc(O)cc(O)c5C(=O)[C@@H]4O)ccc3OC2CO)ccc1O (stereo partly drawn) : 157

Turning now to a further compound:
query: Recorded Activity for O=C(/C=C/c1ccccc1)OC[C@H]1O[C@@H](O[C@@H]2OC=C[C@H]3[C@H](O)[C@@H]4O[C@]4(CO)[C@@H]23)[C@H](O)[C@@H](O)[C@@H]1O [PICROSIDE I] , please?
result: 50
